Numbers sourced from patent US20260234157A1.

- target-or-test-system: AR protein (Homo sapiens)
- Construct: degradation activity of the compounds disclosed in the present disclosure on AR protein in VCaP cells; host or cells: VCaP
- Sequence (P10275 1-920): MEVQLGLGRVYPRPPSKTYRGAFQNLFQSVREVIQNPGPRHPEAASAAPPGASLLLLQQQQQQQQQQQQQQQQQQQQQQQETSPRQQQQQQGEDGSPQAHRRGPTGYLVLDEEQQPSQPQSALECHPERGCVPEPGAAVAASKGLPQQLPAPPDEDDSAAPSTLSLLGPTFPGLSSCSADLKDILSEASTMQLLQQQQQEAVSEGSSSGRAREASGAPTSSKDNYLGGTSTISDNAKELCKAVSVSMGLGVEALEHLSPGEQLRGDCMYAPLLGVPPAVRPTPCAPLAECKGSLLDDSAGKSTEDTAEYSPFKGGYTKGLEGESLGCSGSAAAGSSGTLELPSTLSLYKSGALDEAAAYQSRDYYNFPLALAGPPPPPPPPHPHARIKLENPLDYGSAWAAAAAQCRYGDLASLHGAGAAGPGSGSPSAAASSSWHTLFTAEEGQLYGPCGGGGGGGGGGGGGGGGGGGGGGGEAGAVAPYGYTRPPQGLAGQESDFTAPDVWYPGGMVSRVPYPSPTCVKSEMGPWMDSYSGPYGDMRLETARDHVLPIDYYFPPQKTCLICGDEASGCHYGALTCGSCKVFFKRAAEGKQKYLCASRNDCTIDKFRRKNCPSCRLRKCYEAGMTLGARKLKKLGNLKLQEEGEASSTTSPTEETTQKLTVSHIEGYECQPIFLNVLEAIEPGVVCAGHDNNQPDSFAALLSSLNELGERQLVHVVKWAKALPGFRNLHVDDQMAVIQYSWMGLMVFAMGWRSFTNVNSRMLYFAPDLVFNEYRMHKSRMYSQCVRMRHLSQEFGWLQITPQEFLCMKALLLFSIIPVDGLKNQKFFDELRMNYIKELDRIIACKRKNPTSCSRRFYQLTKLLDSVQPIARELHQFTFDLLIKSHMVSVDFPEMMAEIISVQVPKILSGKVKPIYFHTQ
- assay: Degradation of AR protein in VCaP cells (Western blot)
- Assay type: cell-based
- details: compound at 100 nM, 8 hours, read-out: Degradation rate of the AR protein in VCaP cells, 100 nM (%)
measured-metric: inhibition at 0.1 µM (%)
Please reply with the bare figure in % and do not write the unit itself.

Query: So what does the record say about inhibition at 0.1 µM for N#Cc1ccc(O[C@H]2CC[C@H](NC(=O)c3ccc(N4CCC(CN5CC6(CCc7cc8c(cc7O6)C(=O)N(C6CCC(=O)NC6=O)C8=O)C5)CC4)nn3)CC2)cc1Cl (stereo partly drawn) ?
Result: 79

Query: Now this one: N#Cc1ccc(O[C@H]2CC[C@H](NC(=O)c3ccc(N4CCC(N5CCC6(CCc7cc8c(cc7O6)C(=O)N(C6CCC(=O)NC6=O)C8=O)CC5)CC4)nn3)CC2)cc1Cl (stereo partly drawn)
Result: 56

Query: Now this one: N#Cc1ccc(O[C@H]2CC[C@H](NC(=O)c3ccc(N4CCC(N5CCC6(CC5)COc5cc7c(cc56)C(=O)N(C5CCC(=O)NC5=O)C7=O)CC4)nn3)CC2)cc1Cl (stereo partly drawn)
Result: 82

* * *

- target-or-test-system: AR protein (Homo sapiens, UniProt P10275, T878A)
- Construct: degradation activity of the compounds disclosed in the present disclosure on AR protein in LNCaP cells; host or cells: LNCaP FGC
- assay: Degradation of AR protein in LNCaP cells (Western blot)
- Format: cell-based
- details: LNCaP cells, compound 100 nM, 8 hours, Western blot grayscale, GAPDH internal reference; read-out: Degradation rates of the AR protein in LNCaP cells, 100 nM (%)
Could you please report measured inhibition at 0.1 µM for the items listed next?
Please reply with the bare figure in % and do not write the unit itself.

Query: So what does the record say about inhibition at 0.1 µM for COc1cc(O[C@H]2C(C)(C)[C@H](NC(=O)c3ccc(N4CCC(F)(CN5CC6(CCc7cc8c(cc7O6)C(=O)N(C6CCC(=O)NC6=O)C8=O)C5)CC4)cc3)C2(C)C)ccc1C#N (stereo partly shown) ?
Result: 61

Query: Now this one: COc1cc(O[C@H]2C(C)(C)[C@H](NC(=O)c3ccc(N4CCC(C)(CN5CCC6(CC5)COc5c6ccc6c5CN(C5CCC(=O)NC5=O)C6=O)CC4)cc3)C2(C)C)ccc1C#N (stereo partly shown)
Result: 76

Query: Now this one: N#Cc1ccc(O[C@H]2CC[C@H](NC(=O)c3ccc(N4CCC(C#N)(CN5CCC6(CC5)COc5c6ccc6c5C(=O)N(C5CCC(=O)NC5=O)C6=O)CC4)nn3)CC2)cc1Cl (stereo partly shown)
Result: 62

Query: Now this one: N#Cc1ccc(O[C@H]2CC[C@H](NC(=O)c3ccc(N4CC5(CC(N6CCC7(CCc8cc9c(cc8O7)C(=O)N(C7CCC(=O)NC7=O)C9=O)CC6)C5)C4)nn3)CC2)cc1Cl (stereo partly shown)
Result: 53

Query: Now this one: CC1(CN2CCC3(CC2)COc2c3ccc3c2CN(C2CCC(=O)NC2=O)C3=O)CCN(c2ccc(C(=O)N[C@H]3CC[C@H](Oc4ccc(C#N)c(Cl)c4)CC3)nc2)CC1 (stereo partly shown)
Result: 44

Query: Now this one: N#Cc1ccc(O[C@H]2CC[C@H](NC(=O)c3ccc(N4CCC5(CCC(N6CCC7(CC6)COc6c7ccc7c6CN(C6CCC(=O)NC6=O)C7=O)CC5)CC4)nn3)CC2)cc1Cl (stereo partly shown)
Result: 21

Query: Now this one: COc1cc(O[C@H]2CC[C@H](NC(=O)c3ccc(N4CCC(C)(CN5CCC6(CC5)COc5c6ccc6c5C(=O)N(C5CCC(=O)NC5=O)C6=O)CC4)nn3)CC2)ccc1C#N (stereo partly shown)
Result: 53

Query: Now this one: COc1cc(O[C@H]2C(C)(C)[C@H](NC(=O)c3ccc(N4CCC(C)(CN5CCC6(CCc7cc8c(cc7O6)C(=O)N(C6CCC(=O)NC6=O)C8=O)CC5)CC4)cc3)C2(C)C)ccc1C#N (stereo partly shown)
Result: 51

Query: Now this one: N#Cc1ccc(O[C@H]2CC[C@H](NC(=O)c3ccc(N4CCC(C#N)(CN5CCC6(CC5)COc5c6ccc6c5CN(C5CCC(=O)NC5=O)C6=O)CC4)nn3)CC2)cc1Cl (stereo partly shown)
Result: 53

Query: Now this one: N#Cc1ccc(O[C@H]2CC[C@H](NC(=O)c3ccc(N4CCC(CN5CC6(CCc7cc8c(cc7O6)C(=O)N(C6CCC(=O)NC6=O)C8=O)C5)CC4)nn3)CC2)cc1Cl (stereo partly shown)
Result: 82
